- study-system: T1, human 5T4-His protein (human, UniProt Q13641 32-355)
- T1 construct: also called recombinant 5T4 protein (human 5T4-his tag); human 5T4 protein; not shown: His tag
- T1 sequence (looked up): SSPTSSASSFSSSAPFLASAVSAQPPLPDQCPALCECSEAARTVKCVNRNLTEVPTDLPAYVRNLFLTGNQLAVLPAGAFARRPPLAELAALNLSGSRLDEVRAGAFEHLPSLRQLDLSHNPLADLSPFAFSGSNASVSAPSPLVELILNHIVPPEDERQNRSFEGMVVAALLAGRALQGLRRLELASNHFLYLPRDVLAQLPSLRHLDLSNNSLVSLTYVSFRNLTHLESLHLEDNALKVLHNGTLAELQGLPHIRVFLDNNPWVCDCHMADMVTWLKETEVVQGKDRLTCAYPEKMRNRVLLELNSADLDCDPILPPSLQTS
- test-description: SPR Biacore, Protein A capture, 50 nM 5T4-His
measurement-name: kon

Task: Give reported kon value for Hu159D5-10 (antibody, V domains shown, humanized) VH: EVQLVESGGGVVQPGRSLRLSCAASGFTFSNFGMHWVRQAPGKGLEWVAYISSGSSTFYYADSVKGRFTISRDNSKNTLYLQMNSLRAEDTAVYFCARSPAYYRYGLDYWGQGTTVTVSS VL: DIVMTQSPDSLAVSLGERATINCRASQSVSSSTFSYMHWYQQKPGQPPKLLIYSSSNLESGVPDRFSGSGSGTDFTLTISSLQAEDVAVYYCQHSWEIPYTFGGGTKVEIK
Result: 52400 M⁻¹ s⁻¹

Task: Give reported kon value for Hu159D5-7 (antibody, V domains shown, humanized) VH: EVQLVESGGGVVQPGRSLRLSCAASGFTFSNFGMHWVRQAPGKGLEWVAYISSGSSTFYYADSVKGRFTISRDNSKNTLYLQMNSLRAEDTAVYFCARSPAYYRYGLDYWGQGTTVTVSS VL: DIVMTQTPLSLSVTPGQPASISCRASQSVSSSTFSYMHWYQQKPGQPPQLLIYSSSNLESGVPDRFSGSGSGTDFTLKISRVEAEDVGVYYCQHSWEIPYTFGGGTKVEIK
Result: 221000 M⁻¹ s⁻¹

Task: Give reported kon value for Hu159D5-3 (antibody, V domains shown, humanized) VH: EVQLVESGGGVVQPGRSLRLSCAASGFTFSNFGMHWVRQAPGKGLEWVAYISSGSSTFYYADSVKGRFTISRDNSKNTLYLQMNSLRAEDTAVYYCARSPAYYRYGLDYWGQGTTVTVSS VL: DIVLTQTPLSLSVTPGQPASISCRASQSVSSSTFSYMHWYQQKPGQPPQLLIKSSSNLESGVPDRFSGSGSGTDFTLKISRVEAEDVGVYYCQHSWEIPYTFGGGTKVEIK
Result: 235000 M⁻¹ s⁻¹
